Origin of the recorded values: the RNAGym collection of RNA variant scans (doi:10.7554/elife.80360)

// reported self-cleavage for each item listed
B1: HDV Ribozyme (parent)
chain: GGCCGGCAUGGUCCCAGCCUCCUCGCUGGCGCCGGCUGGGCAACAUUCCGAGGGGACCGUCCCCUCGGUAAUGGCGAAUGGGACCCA

Variants of: B1
Experiment: self-cleavage, relative activity (ratio to wild type); higher = more cleavage; co-transcriptional

Look over these answered cases.
{"columns": ["variantLabel", "reportedMetric", "recordedValue"],
 "data": [
  ["C33A U69C", "self-cleavage", 0.342],
  ["A45G U60C", "self-cleavage", 0.831],
  ["G34C U79G", "self-cleavage", 0.0615],
  ["G10U U72G", "self-cleavage", 0.407]
]}

Supply measured self-cleavage of U23A A51G in your reply.
1.01

Give self-cleavage for C7G G28C
0

Output measured self-cleavage for this item: C26A U79A
0.997

Consider the variant G2U A42U . State its measured self-cleavage.
0.0647

Query self-cleavage for G39C C84G
0.0462

Give self-cleavage for the following variant: G10A C86G
0.639

Note down self-cleavage recorded for A51G C63U
0.969
